// data source = PubChem BioAssay (NCI)

Tested on: SR leukemia
Test: NCI-60 one-dose screen, 48 h
Details: 10 µM unless noted
Compounds without any hit were thinned out: in the full panel of roughly 83,000, 20% have a hit. Active and inactive are the calls of the source. How the source made its calls: active means growth percent below 10; inactive means the rest.
Outcomes: active, inactive

INSERT INTO assay_data (molecule, group) VALUES
  ('O=C(CCCCCCNC(=O)C(O)(O)C(F)(F)F)Nc1ncc(-c2ccc(Br)cc2)s1', 'active'),
  ('CN1CCN(Cc2ccc(NC(=O)c3cncc(C#Cc4cnc5ccc(OCC6COC6)nn45)c3)cc2C(F)(F)F)CC1', 'active'),
  ('CC[C@]12C=CCN3CC[C@]4(C(=C(C(=O)OC)C1)Nc1cc5c(cc14)[C@@H]1[C@H](O5)[C@@H](O)[C@@]4(CC)CC(C(=O)OC)=C5Nc6cc(O)ccc6[C@@]56CCN1C46)C32 (stereo partly specified)', 'active'),
  ('Cc1[nH]c(C(=O)Nc2ccc(S(=O)(=O)N3CCCCC3)cc2OCCOCCOCCOCCOCCOCCOCCOCCOCCOc2cc(S(=O)(=O)N3CCCCC3)ccc2NC(=O)c2[nH]c(C)c3c2CCCCC3=O)c2c1C(=O)CCCC2', 'inactive'),
  ('CCOC(=O)c1c(NCC(=O)Nc2cccc([N+](=O)[O-])c2)sc(C(C)=O)c1C', 'active'),
  ('O=C(/C=C/Nc1ccc(S(=O)(=O)Nc2ncccn2)cc1)c1ccc(N=Cc2c(O)[nH]c3ccccc23)cc1', 'inactive'),
  ('NC(N)=NS(=O)(=O)c1ccc(N=Nc2c(N)nn(-c3ccc([N+](=O)[O-])cc3[N+](=O)[O-])c2N)cc1', 'inactive'),
  ('CN1CCN(CC#CCn2c3c(c4ccccc42)C[C@]2(C)[C@H]4CC=C5[C@@H]6CC(C)(C)CC[C@]6(C(=O)N6CCOCC6)CC[C@@]5(C)[C@]4(C)CC[C@H]2C3(C)C)CC1', 'active'),
  ('COc1ccc([C@@H]2C(=O)N(c3cc(OC)c(OC)c(OC)c3)[C@H]2c2ccc(OC)c(O)c2)cc1', 'inactive'),
  ('COc1cc(C(C)=C(c2ccc(OCCN(C)C)cc2)c2ccc(OCCN(C)C)cc2)ccc1F', 'inactive'),
  ('CCCN1C=C/C(=C\C(=O)n2ccc3ccccc32)c2ccccc21', 'inactive'),
  ('CC1=C(SCC(=O)OCCCCCC(C)C)C(=O)c2ccccc2C1=O', 'inactive'),
  ('CCCCCCOC(=O)c1cc(-c2ccc(F)cc2)nc2ccccc12', 'inactive'),
  ('C/C(=N/N)c1nnn(-c2ccc(Br)cc2)c1C', 'inactive'),
  ('CCCCCCCCCCCC(=O)NC(C)(C)C(=O)N1CCCC1C(=O)NC(C)(C)C(=O)NC(C)(C)C(=O)N1CCCC1C(=O)NC(C)(C)C(=O)NC(C)(C)C(=O)N1CCCC1C(=O)NC(C)C(=O)NCCC(=O)NC(C)C(=O)NC(C)(C)C(=O)NC(C)(C)C(=O)NC(C)(C)C(=O)NCCC(=O)NC(C)(C)C(=O)NC(C)(C)C(=O)NC(C)(C)C(=O)NC(C)C(=O)NCCC(=O)O (stereo unspecified)', 'active'),
  ('O=C1[C@H]2Cc3c([nH]c4ccccc34)[C@H](c3ccc(Cl)cc3)N2C(=O)CN1C1CCN(CC2CCCCC2)CC1', 'active');
